attribute measured: melting point

# example entries with known answers
{"columns": ["compound", "melting point"],
 "data": [
  ["O=C(O)c1ccccc1N1CCN(CC(O)COc2ccc(O)cc2)CC1 (stereo unspecified)", "235 to 237 °C"],
  ["O=C(O)CCN1CCCCC1=O", "105 to 110 °C"],
  ["O=C(NCCO)c1cccc(-c2cc3c(ccn3Cc3ccc(Cl)cc3Cl)cn2)c1", "198 to 199 °C"],
  ["CC(C)S(=O)(=O)c1ccc2c(c1)nc(CC(C)(C)C)n2CCN(C)C", "116 °C"],
  ["CCCCCCCCCCCCCCCC(=O)CC(=O)OC", "40 to 41 °C"],
  ["CCOC(=O)C1(C(N)=O)OCCO1", "99 to 100 °C"],
  ["CN1CCN(Cc2ccccc2F)C(C2=NCCN2)C1 (stereo unspecified)", "160 to 162 °C"],
  ["CC(/C=C/c1ccccc1-c1ccc2c(c1)C(C)(C)CCC2(C)C)=C\\C(=O)O", "178 to 179 °C"]
]}

Asked: Value lookup for melting point; key = Cc1c(NC(=O)CC(C)(C)C)cc2c(c1C)OC(C)(C)C2c1cccc(C(C)C)c1 (stereo unspecified)
Given back: 162 to 163 °C

Asked: Value lookup for melting point; key = O=C1[C@@H]2C[C@H](OCc3ccc4cnccc4c3)CN2C(=O)N1c1cc(Cl)cc(Cl)c1
Given back: 144 °C

Asked: Value lookup for melting point; key = O=C(O)c1ccc(-c2cnc3c(c2)N(Cc2ccccc2OC(F)(F)F)CCN3)cc1
Given back: 250 °C
